targetSystem: T1, human CD37 protein (human, UniProt P11049 1-281)
T1 construct: Four-pass transmembrane tetraspanin
T1 sequence: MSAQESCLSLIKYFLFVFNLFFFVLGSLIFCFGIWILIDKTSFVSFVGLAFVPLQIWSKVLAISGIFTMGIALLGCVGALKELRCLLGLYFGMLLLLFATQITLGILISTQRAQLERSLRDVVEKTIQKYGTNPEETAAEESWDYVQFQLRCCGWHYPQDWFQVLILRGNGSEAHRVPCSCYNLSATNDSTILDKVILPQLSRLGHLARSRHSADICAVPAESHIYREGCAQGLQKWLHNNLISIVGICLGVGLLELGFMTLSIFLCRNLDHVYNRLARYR
protocolDetails: flow cytometry on OCI-LY7 cells, FITC anti-human IgG Fc secondary
observable: binding result

hmAb-H551L11 (antibody, human IgG1, kappa, V domains shown, Unconjugated humanized IgG1 kappa antibody; also called anti-CD37 humanized antibody having hmAb-H551 as a heavy chain and hmAb-L11 as a light chain) VH: EVQLVQSGAEVKKPGASVKVSCKASGYSFTDYNMYWVRQAPGQSLEWMGYIDPYNGDTTYNQKFQGRVTMTRDTSSSTAYMELSRLRSDDTAVYYCARSPYGHYAMDYWGQGTTVTVSS VL: DIQMTQSPSSLSASVGDRVTITCKASQDVSTAVDWYQQKPGKAPKLLINWASTRHTGVPSRFSGSGSGTDFTLTISSLQPEDFATYYCRQHYSTPFTFGQGTKVEIKR : binds

The measurements presented in this section are drawn from patent US12138315.
